Assign IC50 to each entry below.
Test system: A549 NSCLC cells
Assay Explanation: NSCLC cell proliferation in vitro (MTS assay)
Format: cell-based, human
Measurement Parameters: in the presence of 1 μM palbociclib, 72 hours, 5% DCC-FBS, MTS assay; read-out: IC50 of SERD for inhibition of NSCLC cell proliferation, A549
A complete answer gives the number and then names the unit.

Record excerpt, results attached:
- Structure Smiles String: "C[C@]12C[C@H](Oc3ccc(N)c(C(F)(F)F)c3)[C@@H]3c4ccc(O)cc4CC[C@H]3[C@@H]1CC[C@@H]2O"
  IC50: "1340 nM"
- Structure Smiles String: "C[C@]12C[C@H](Oc3ccc(NC(=O)CCCCN4CCCCC4)c(F)c3)[C@@H]3c4ccc(O)cc4CC[C@H]3[C@@H]1CC[C@@H]2O"
  IC50: "1220 nM"
- Structure Smiles String: "C[C@]12C[C@H](Oc3ccc(NC(=O)CN4CCOCC4)cc3)[C@@H]3c4ccc(O)cc4CC[C@H]3[C@@H]1CC[C@@H]2O"
  IC50: "1220 nM"

Let us examine a further case.
`C[C@]12C[C@H](Oc3ccc(N)cc3)[C@@H]3c4ccc(O)cc4CC[C@H]3[C@@H]1CC[C@@H]2O` has a reported IC50 of 2570 nM
